- tested target: Fes (UniProt P07332)
- Sequence (P07332 whole entry, looked up): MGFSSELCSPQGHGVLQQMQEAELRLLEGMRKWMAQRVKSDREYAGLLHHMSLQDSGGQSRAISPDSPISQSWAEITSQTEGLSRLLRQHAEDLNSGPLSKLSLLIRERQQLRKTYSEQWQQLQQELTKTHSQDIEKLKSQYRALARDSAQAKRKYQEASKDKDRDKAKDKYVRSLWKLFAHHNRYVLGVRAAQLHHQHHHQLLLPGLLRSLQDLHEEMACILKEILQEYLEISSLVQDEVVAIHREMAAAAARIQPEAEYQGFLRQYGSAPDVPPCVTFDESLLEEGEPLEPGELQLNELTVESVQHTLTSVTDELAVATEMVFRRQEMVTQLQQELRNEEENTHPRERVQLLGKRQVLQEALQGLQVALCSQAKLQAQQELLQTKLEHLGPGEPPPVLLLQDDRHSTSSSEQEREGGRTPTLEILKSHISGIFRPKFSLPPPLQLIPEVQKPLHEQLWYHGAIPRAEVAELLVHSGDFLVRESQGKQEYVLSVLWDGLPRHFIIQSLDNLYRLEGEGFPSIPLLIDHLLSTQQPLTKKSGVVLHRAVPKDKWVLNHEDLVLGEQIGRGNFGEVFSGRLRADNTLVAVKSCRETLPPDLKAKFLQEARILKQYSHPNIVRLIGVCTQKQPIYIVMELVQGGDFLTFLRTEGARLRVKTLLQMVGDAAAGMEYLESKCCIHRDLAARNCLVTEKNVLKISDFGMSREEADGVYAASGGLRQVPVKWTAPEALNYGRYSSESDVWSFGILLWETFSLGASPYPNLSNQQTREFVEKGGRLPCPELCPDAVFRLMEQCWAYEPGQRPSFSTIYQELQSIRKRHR
- measurement notes: phosphorylation enrichment, bacterial display (enrichment ratio); higher = better substrate or ligand; peptides without Tyr show the background;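 note: 11-residue human phosphosite peptides and single-mutation variants displayed on the E. coli surface, counted by deep sequencing, each peptide's frequency after selection divided by its frequency in the unselected input library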;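 note: frequency after pTyr selection over input frequency; kinase dosed for 20-30% of maximal phosphorylation in three min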
experimental readout: phosphorylation enrichment
# respond with the number and nothing more

ERPIRYLNHQL [CEP152_Y268_Q265P] = 0.591

Exercise: Give the measured phosphorylation enrichment of PELINYHQHNS [BTK_Y361] .
Solution: 1.06

Exercise: Same thing, different sequence: GAVGHYVLAER [HFE_Y342_M339V]
Solution: 0.711

* * *

- tested target: Fyn (UniProt P06241)
- Sequence (P06241 whole entry, looked up): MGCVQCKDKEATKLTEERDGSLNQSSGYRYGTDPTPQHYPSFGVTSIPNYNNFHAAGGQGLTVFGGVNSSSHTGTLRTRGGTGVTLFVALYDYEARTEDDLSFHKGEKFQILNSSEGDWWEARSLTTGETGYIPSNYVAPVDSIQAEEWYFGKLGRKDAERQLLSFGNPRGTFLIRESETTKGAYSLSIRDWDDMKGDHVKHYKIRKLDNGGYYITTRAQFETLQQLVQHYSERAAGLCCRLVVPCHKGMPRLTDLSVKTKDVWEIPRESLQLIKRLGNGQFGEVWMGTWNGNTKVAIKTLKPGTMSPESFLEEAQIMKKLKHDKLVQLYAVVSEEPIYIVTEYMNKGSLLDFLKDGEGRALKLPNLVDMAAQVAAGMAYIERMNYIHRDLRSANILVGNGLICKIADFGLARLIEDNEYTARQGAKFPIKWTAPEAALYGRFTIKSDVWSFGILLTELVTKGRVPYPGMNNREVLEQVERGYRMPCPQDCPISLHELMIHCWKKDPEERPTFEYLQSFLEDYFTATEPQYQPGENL
- measurement notes: phosphorylation enrichment, bacterial display (enrichment ratio); higher = better substrate or ligand; peptides without Tyr show the background
Where phosphorylation enrichment equals or exceeds 0.4, the correct label is YES; where it does not, the label is NO.

// known answers, use as guide
TEYSQYMRRKN [MAX_Y73_I71S] = YES
PELINCHQHNS [BTK_Y361_Y361C] = NO
LYSNAYLNDLA [ALDH1A1_Y119] = YES
DFKIIYIAPMR [SNRNP200_Y540] = YES

Exercise: Exam item: decide whether the reported phosphorylation enrichment for PESIPYRKFTT [NTRK1_Y701_L700P] is at least 0.4.
Solution: NO

Exercise: Same thing, different sequence: DPEATYTTSGG [EPHA2_Y772]
Solution: YES
